Values were extracted from ChEMBL document CHEMBL1122704.

system: Rattus norvegicus; experiment: Compound was evaluated for the biological activity against Hymenolepsis nana (rats) at the 250 mg/kg; insignificant activity; format: functional, organism-based; design: dose 250 mg/kg
Active and inactive are the calls of the source. No cut-off for these calls is given here.
Observation Type: Activity

COC(=O)Nc1nc2cc(C(=O)Nc3ccc(Sc4ccc(NC(=O)c5ccc6[nH]c(NC(=O)OC)nc6c5)cc4)cc3)ccc2[nH]1 = inactive
COC(=O)Nc1nc2cc(C(=O)Nc3nc4ccc(OC)cc4s3)ccc2[nH]1 = inactive
COC(=O)Nc1nc2cc(C(=O)NCCNC(=O)c3ccc4[nH]c(NC(=O)OC)nc4c3)ccc2[nH]1 = inactive

---

system: Rattus norvegicus; assay: Compound was evaluated for the biological activity against Hymenolepsis nana (rats) at the 250 mg/kg; insignificant activity; format: functional, organism-based; set-up: dose 250 mg/kg
Calls of active or inactive are those of the source. No cut-off for these calls is given here.
Observation Type: Activity

COC(=O)Nc1nc2cc(NC(=O)c3ccc(C(=O)Nc4ccc5[nH]c(NC(=O)OC)nc5c4)cc3)ccc2[nH]1 = inactive
CCOC(=O)Nc1nc2cc(C(=O)NCCc3ccc(OC)c(OC)c3)ccc2[nH]1 = inactive
CCOC(=O)Nc1nc2cc(C(=O)Nc3ccccc3)ccc2[nH]1 = inactive
COC(=O)Nc1nc2cc(C(=O)Nc3ccc(S(=O)(=O)c4ccc(NC(=O)c5ccc6[nH]c(NC(=O)OC)nc6c5)cc4)cc3)ccc2[nH]1 = inactive
COC(=O)Nc1nc2cc(C(=O)Nc3ccncc3)ccc2[nH]1 = inactive
COC(=O)Nc1nc2cc(C(=O)Nc3ccccn3)ccc2[nH]1 = inactive
COC(=O)Nc1nc2cc(C(=O)NCCc3ccc(NC(=O)c4ccc5[nH]c(NC(=O)OC)nc5c4)cc3)ccc2[nH]1 = inactive
COC(=O)Nc1nc2cc(C(=O)Nc3nccs3)ccc2[nH]1 = inactive
COC(=O)Nc1nc2cc(C(=O)NC3CCCCC3)ccc2[nH]1 = inactive

---

Each entry below carries its reported Activity.
test system: Ancylostoma ceylanicum; experiment: Compound was evaluated for the biological activity against Ancylostoma ceylanicum in hamsters at the 250 mg/kg; type: functional
Observation Type: Activity (%)

COC(=O)Nc1nc2cc(C(=O)Nc3ccccc3)ccc2[nH]1 = 87
COC(=O)Nc1nc2cc(C(=O)N3CCN(c4ccccc4)CC3)ccc2[nH]1 = 100
COC(=O)Nc1nc2cc(NC(=O)c3ccc(C(=O)Nc4ccc5[nH]c(NC(=O)OC)nc5c4)cc3)ccc2[nH]1 = 100
COC(=O)Nc1nc2cc(C(=O)Nc3ccc(F)cc3)ccc2[nH]1 = 100
